FYI, the data here is from patent US20230372313A1.

assay: Plasma pharmacokinetics of Compound 2 in PD participants (LC-MS/MS); type: in vivo, human; conditions: human, plasma, po, 4 mg, plasma, Day 1; Japan, Low 4 mg oral, n = 3; read-out: AUC0-48, mean

{"smiles.data": "CC(C)(NC(=O)O[C@@H]1CN2CCC1CC2)c1csc(-c2ccc(F)cc2)n1", "AUC(0-t) [ng·h/mL]": 661}

---

test: Plasma pharmacokinetics of Compound 2 in PD participants (LC-MS/MS); format: in vivo, human; conditions: human, plasma, po, 8 mg, plasma, Day 1; Japan, Mid 8 mg oral, n = 3; read-out: AUC0-24, mean
parameter.measured: AUC(0-t) (ng·h/mL)

{"smiles.data": "CC(C)(NC(=O)O[C@@H]1CN2CCC1CC2)c1csc(-c2ccc(F)cc2)n1", "quantity.unit": "ng·h/mL", "result": 623}

---

assay: Plasma pharmacokinetics of Compound 2 in PD participants (LC-MS/MS); assay type: in vivo, human; details: human, plasma, po, 15 mg, plasma, Day 1; ROW, High 15 mg oral, n = 4; read-out: AUC0-24, Geometric mean

{"smiles.data": "CC(C)(NC(=O)O[C@@H]1CN2CCC1CC2)c1csc(-c2ccc(F)cc2)n1", "AUC(0-t) (ng·h/mL)": 868}

---

experiment: Plasma pharmacokinetics of Compound 2 in PD participants (LC-MS/MS); type: in vivo, human; details: human, plasma, po, 8 mg, plasma, Week 4; Japan, Mid 8 mg once daily oral, n = 3; read-out: AUC0-24, Geometric mean

{"molecule": "CC(C)(NC(=O)O[C@@H]1CN2CCC1CC2)c1csc(-c2ccc(F)cc2)n1 [Compound 2]", "quantity.unit": "ng·h/mL", "AUC(0-t)": 1620}

---

test: Plasma pharmacokinetics of Compound 2 in PD participants (LC-MS/MS); type: in vivo, human; conditions: human, plasma, po, 15 mg, plasma, Day 1; ROW, High 15 mg oral, n = 4; read-out: AUC0-48, Geometric mean

{"smiles.data": "CC(C)(NC(=O)O[C@@H]1CN2CCC1CC2)c1csc(-c2ccc(F)cc2)n1", "quantity.unit": "ng·h/mL", "AUC(0-t)": 1440}

---

assay: Plasma pharmacokinetics of Compound 2 in PD participants (LC-MS/MS); assay type: in vivo, human; conditions: human, plasma, po, 15 mg, plasma, Week 4; Japan, High 15 mg once daily oral, n = 2; read-out: AUC0-24, mean

{"smiles.data": "CC(C)(NC(=O)O[C@@H]1CN2CCC1CC2)c1csc(-c2ccc(F)cc2)n1", "AUC(0-t) (ng·h/mL)": 3150}

---

assay: Plasma pharmacokinetics of Compound 2 in PD participants (LC-MS/MS); type: in vivo, human; settings: human, plasma, po, 4 mg, plasma, Day 1; Japan, Low 4 mg oral, n = 3; read-out: AUC0-24, Geometric mean
parameter.measured: AUC(0-t)

{"compound": "CC(C)(NC(=O)O[C@@H]1CN2CCC1CC2)c1csc(-c2ccc(F)cc2)n1 [Compound 2]", "parameter.measured": "AUC(0-t)", "result": "390 ng·h/mL"}

---

experiment: Plasma pharmacokinetics of Compound 2 in PD participants (LC-MS/MS); assay type: in vivo, human; conditions: human, plasma, po, 15 mg, plasma, Day 1; Japan, High 15 mg oral, n = 3; read-out: tmax, median

{"compound": "CC(C)(NC(=O)O[C@@H]1CN2CCC1CC2)c1csc(-c2ccc(F)cc2)n1 [Compound 2]", "Tmax, h": 4.1}

---

test: Plasma pharmacokinetics of Compound 2 in PD participants (LC-MS/MS); format: in vivo, human; settings: human, plasma, po, 4 mg, plasma, Day 1; ROW, Low 4 mg oral, n = 4; read-out: AUC0-24, mean

{"smiles.data": "CC(C)(NC(=O)O[C@@H]1CN2CCC1CC2)c1csc(-c2ccc(F)cc2)n1", "quantity.unit": "ng·h/mL", "AUC(0-t)": 255}

---

assay: Plasma pharmacokinetics of Compound 2 in PD participants (LC-MS/MS); format: in vivo, human; settings: human, plasma, po, 15 mg, plasma, Day 1; Japan, High 15 mg oral, n = 3; read-out: AUC0-24, mean

{"smiles.data": "CC(C)(NC(=O)O[C@@H]1CN2CCC1CC2)c1csc(-c2ccc(F)cc2)n1", "AUC(0-t) [ng·h/mL]": 990}

---

experiment: Plasma pharmacokinetics of Compound 2 in PD participants (LC-MS/MS); format: in vivo, human; details: human, plasma, po, 4 mg, plasma, Day 1; Japan, Low 4 mg oral, n = 3; read-out: Cmax, mean

{"smiles.data": "CC(C)(NC(=O)O[C@@H]1CN2CCC1CC2)c1csc(-c2ccc(F)cc2)n1", "Cmax (ng/mL)": 21.8}

---

assay: Plasma pharmacokinetics of Compound 2 in PD participants (LC-MS/MS); format: in vivo, human; conditions: human, plasma, po, 8 mg, plasma, Day 1; ROW, Mid 8 mg oral, n = 5; read-out: tmax, median

{"smiles.data": "CC(C)(NC(=O)O[C@@H]1CN2CCC1CC2)c1csc(-c2ccc(F)cc2)n1", "Tmax, h": 4.17}

---

test: Plasma pharmacokinetics of Compound 2 in PD participants (LC-MS/MS); type: in vivo, human; details: human, plasma, oral, plasma, Week 4, Japanese participants, across all doses tested; read-out: median tmax values

{"molecule": "CC(C)(NC(=O)O[C@@H]1CN2CCC1CC2)c1csc(-c2ccc(F)cc2)n1 [Compound 2]", "Tmax": "2.1 to 4.33 h"}

---

Assay: Plasma pharmacokinetics of Compound 2 in PD participants (LC-MS/MS)
Assay type: in vivo, human
Details: human, plasma, po, 8 mg, plasma, Day 1; Japan, Mid 8 mg oral, n = 3; read-out: Cmax, Geometric mean
Experimental: Participants were randomised to 3 doses of once-daily orally administered Compound 2 or placebo, in sequential cohort design, and were followed up to 36 weeks (52 weeks for Japanese participants). […] The secondary outcome was to evaluate the pharmacokinetic profile of Compound 2 in plasma and cerebrospinal fluid (CSF) over a 4-week period. […] All parameters were assessed at Week 0 and Week 4 after treatment. […]
parameter.measured: Cmax

{"smiles.data": "CC(C)(NC(=O)O[C@@H]1CN2CCC1CC2)c1csc(-c2ccc(F)cc2)n1", "result": "29.9 ng/mL"}

---

assay: Plasma pharmacokinetics of Compound 2 in PD participants (LC-MS/MS); format: in vivo, human; conditions: human, plasma, po, 4 mg, plasma, Week 4; ROW, Low 4 mg once daily oral, n = 4; read-out: Cmax, mean

{"smiles.data": "CC(C)(NC(=O)O[C@@H]1CN2CCC1CC2)c1csc(-c2ccc(F)cc2)n1", "quantity.unit": "ng/mL", "Cmax": 41.6}

---

test: Plasma pharmacokinetics of Compound 2 in PD participants (LC-MS/MS); format: in vivo, human; conditions: human, plasma, po, 8 mg, plasma, Day 1; Japan, Mid 8 mg oral, n = 3; read-out: Cmax, mean

{"smiles.data": "CC(C)(NC(=O)O[C@@H]1CN2CCC1CC2)c1csc(-c2ccc(F)cc2)n1", "quantity.unit": "ng/mL", "Cmax": 31.3}

---

assay: Plasma pharmacokinetics of Compound 2 in PD participants (LC-MS/MS); format: in vivo, human; conditions: human, plasma, po, 15 mg, plasma, Week 4; ROW, High 15 mg once daily oral, n = 4; read-out: Cmax, mean
parameter.measured: Cmax (ng/mL)

{"compound": "CC(C)(NC(=O)O[C@@H]1CN2CCC1CC2)c1csc(-c2ccc(F)cc2)n1 [Compound 2]", "result": 136}
